- Test system: T-24
- assay.text: Induction of apoptosis in human T24 cells assessed as DNA fragmentation after 48 hrs by ELISA relative to control
- Type: functional
Threshold 2: fold change (FC) strictly smaller gives yes (1), otherwise no (0).

{"smiles": "c1ccc(CCNc2nc(NCCc3ccccc3)c3cccnc3n2)cc1", "answer.label": "yes (1)"}
{"smiles": "CCCCCCNc1nc(SCC)nc2ncccc12", "answer.label": "yes (1)"}
{"smiles": "CCCCCCNc1nc(SC(C)C)nc2ncccc12", "answer.label": "yes (1)"}
{"smiles": "CCNc1nc(SCC)nc2ncccc12", "answer.label": "yes (1)"}
{"smiles": "CCCCCCCNc1nc(SC(C)C)nc2ncccc12", "answer.label": "yes (1)"}
{"smiles": "c1ccc(CNc2nc(NCc3ccccc3)c3cccnc3n2)cc1", "answer.label": "no (0)"}
{"smiles": "Brc1ccc(CCNc2nc(NCCc3ccc(Br)cc3)c3cccnc3n2)cc1", "answer.label": "yes (1)"}
{"smiles": "COc1ccc(CNc2ccnc(NCc3ccc(OC)cc3)n2)cc1", "answer.label": "yes (1)"}
{"smiles": "CCCCNc1nc(SCCCC)nc2ncccc12", "answer.label": "no (0)"}
{"smiles": "CCCCNc1nc(SCC)nc2ncccc12", "answer.label": "yes (1)"}
{"smiles": "c1ccc(CNc2ccnc(NCc3ccccc3)n2)cc1", "answer.label": "no (0)"}
{"smiles": "COc1ccc(CNc2nc(NCc3ccc(OC)cc3)c3cccnc3n2)cc1", "answer.label": "no (0)"}
{"smiles": "CCCCCNc1nc(NCCCCC)c2cccnc2n1", "answer.label": "no (0)"}
{"smiles": "Cc1ccc(CNc2nc(NCc3ccc(C)cc3)c3cccnc3n2)cc1", "answer.label": "no (0)"}
{"smiles": "c1ccc(CCNc2ccnc(NCCc3ccccc3)n2)cc1", "answer.label": "yes (1)"}
{"smiles": "c1ccc(CCCNc2nc(NCCCc3ccccc3)c3cccnc3n2)cc1", "answer.label": "no (0)"}
{"smiles": "CCCCCNc1nc(SCC)nc2ncccc12", "answer.label": "no (0)"}
{"smiles": "c1ccc(CCCNc2ccnc(NCCCc3ccccc3)n2)cc1", "answer.label": "yes (1)"}
{"smiles": "Cc1ccc(CNc2nc(NCc3ccc(C)cc3)c3ccccc3n2)cc1", "answer.label": "no (0)"}
{"smiles": "CCCCCNc1nc(NCCCCC)c2ccccc2n1", "answer.label": "yes (1)"}
{"smiles": "Cc1ccc(CNc2ccnc(NCc3ccc(C)cc3)n2)cc1", "answer.label": "no (0)"}
{"smiles": "Clc1ccc(CNc2nc(NCc3ccc(Cl)cc3)c3cccnc3n2)cc1", "answer.label": "yes (1)"}
{"smiles": "COc1ccc(CNc2nc(NCc3ccc(OC)cc3)c3ccccc3n2)cc1", "answer.label": "no (0)"}
{"smiles": "CCCCCNc1nc(SC(C)C)nc2ncccc12", "answer.label": "yes (1)"}
{"smiles": "c1ccc(CCCCNc2nc(NCCCCc3ccccc3)c3cccnc3n2)cc1", "answer.label": "no (0)"}
{"smiles": "CCCCCCNc1nc(SCCCC)nc2ncccc12", "answer.label": "no (0)"}

* * *

- assay.text: Cytotoxicity against human CRL8799 cells assessed as cell survival at 20 to 100 uM after 72 hrs by neutral red dye assay
- Type: cell-based
- recorded.conditions: read-out: Survival
endpoint.label: viability at 72 h, up to 100 µM (%)

{"smiles": "CCCCCNc1nc(SCCCC)nc2ncccc12", "endpoint.unit": "%", "reported.value": 84}
{"smiles": "Brc1ccc(CCNc2nc(NCCc3ccc(Br)cc3)c3ccccc3n2)cc1", "endpoint.unit": "%", "reported.value": 11}
{"smiles": "Clc1ccc(CNc2nc(NCc3ccc(Cl)cc3)c3cccnc3n2)cc1", "endpoint.unit": "%", "reported.value": 0}
{"smiles": "CCCCNc1nc(NCCCC)c2ccccc2n1", "endpoint.unit": "%", "reported.value": 4}
{"smiles": "CCCCCCCNc1nc(SCC)nc2ncccc12", "endpoint.unit": "%", "reported.value": 93}
{"smiles": "c1ccc(CCCNc2ccnc(NCCCc3ccccc3)n2)cc1", "endpoint.unit": "%", "reported.value": 10}
